Reference source for all entries: the supplement of paper PMC10567573

assay: protein stability index of a GFP-peptide fusion (GPS, HEK-293T) (PSI 1-6); higher = more stable; settings: treatment: DMSO; c terminus: a fixed tail appended;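 further: 24-mer peptide tiles fused after GFP, lentivirally expressed, FACS-sorted into six equal bins by GFP/DsRed ratio, decoded by Illumina sequencing, PSI is the read-weighted mean bin number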
Consider the following sequences; for each one, report its protein stability index.
Give bare numbers.

                     query_sequence       measured_parameter  result
0  KKLRFHPKQLYFSARQGELQKVLL [EHMT1]  protein stability index    3.28

Please go through the list and note protein stability index for each sequence.
1. SGYGFRPSMVSGGYVANSSNCISG [KRT71]
2. DLLSCSNFAVQHRYLFEEDNLLRS [MATN2]
3. LSDFEECEETGELFEEPAPQALAT [FCHSD1]
4. QELSEVLELLSAPELKSLAKTFHL [FAN1]

Output:
[2.82, 2.42, 5.21, 2.26]

Please go through the list and note protein stability index for each sequence.
1. RYLAVLESPIPEDKDRRFVFSYFL [EFHC1]
2. IKLLQSSGADFHKKDKCGRTPLHY [ANKRD44]
3. EEYTTGMADCILVNSQFTAAVFKE [ALG2]
4. QRGHYRVARILIDLCSDVNVCSLL [RIPK4]
5. KCLSIMLAEWEANPLICPVCTKYN [RPAIN]

Output:
1. 2.37
2. 2.42
3. 3.21
4. 2.9
5. 2.8

Please go through the list and note protein stability index for each sequence.
1. FTMFLNLFGEKLSGTDAEETILNA [MYL5]
2. KSTSIQVIVKEGGLKLIQIQDNGT [MLH1]
3. QVLRFYAIWDDTDSMYGECRTYII [EFHC1]

Output:
[2.12, 2.18, 2.91]

====

Consider the following sequences; for each one, report its protein stability index.
assay: protein stability index of a GFP-peptide fusion (GPS, HEK-293T) (PSI 1-6); higher = more stable; settings: treatment: DMSO; c terminus: a fixed tail appended
Give bare numbers.

The cases that follow already have their protein stability index on record.
                       query_sequence  result
0   KPYACDECAKAFSRSAILIQHRRT [ZNF396]    2.12
1    PYHVDSLLQLSDACRFQEDQEMAR [TCF25]    4.36
2    GHSTDAREMSKTFIIGELHPDDRP [CYB5A]    4.38
3  ARLASPLPREEEIVFPEKLNGSVL [ADAMTS4]    4.01
4    SSHEVKALGAMWKLHKSQLSQALN [TRIM9]     2.7

Please go through the list and note protein stability index for each sequence.
1. VQLAQQQAALQKQQEVVVAGSSLP [ACBD3]
2. QRCQKCSWSQYEMPEFSSDSTMRI [RTP4]
3. EKQIRSFLIEGPLINTIRVVCASY [PLEKHN1]
4. AGYYELAQVLLAMHANVEDRGIKG [ANKRD17]

Output:
4.12
2.36
3.13
2.02

Please go through the list and note protein stability index for each sequence.
1. THGALCLELLVNNGADVNIQSKDG [ANKRD44]
2. SRDSAAITHSTYSLPASSYSQDPV [NOL4L]
3. SKLASNGTPMGTFAPLWEVFRVSS [FCHO1]
4. HEPLSKERVEAFSDGVYAIVATLL [TMEM175]
5. LKGSRVSILFGHENRVSTLRVSPD [GNB5]
6. DKYVGVSSDSVGGFRYSERYDPEP [CLINT1]
7. TGYLSTMVGLILGPFGINHGIELH [PCMTD1]

Output:
1. 3.99
2. 4.54
3. 2
4. 2.15
5. 2.96
6. 4.22
7. 3.29

====

Consider the following sequences; for each one, report its protein stability index.
experiment: protein stability index of a GFP-peptide fusion (GPS, HEK-293T) (PSI 1-6); higher = more stable; settings: treatment: MLN4924 1 uM, 8 h; c terminus: a fixed tail appended
Numbers only.

The cases that follow already have their protein stability index on record.
>>> df
                       query_sequence       measured_parameter  result
0    LSIQVEEERRAREWLLDAPELPEG [ZMAT5]  protein stability index    5.06
1  SQENSINPIQKEEDEGVDLSEGSS [SPANXN3]  protein stability index    5.64
2    VASNSELVQSSRSEVTELRRVLQG [KRT16]  protein stability index    4.47

Please go through the list and note protein stability index for each sequence.
1. GLSAPARCLVRCLLRREPAERLTA [TRIB3]
2. TLVQREEPLRILSKYHRFISFTLY [CDS2]
3. EKQIRSFLIEGPLINTIRVVCASY [PLEKHN1]
4. TASSISSSGGSSGSSSDNRTYRYS [DYRK1B]
5. EFVVRCFACPSQALFFKNIMNIID [KCNA4]
6. LTDDDVVDWDEEYPPQMGEEYSQI [BTBD10]
7. PIFMRKDTKMSFQWRIRNLPYPKD [DPCD]
8. AMFAADPKKPIGGNIIAHASTTRL [RAD51]

Output:
[2.16, 2.8, 2.79, 4.67, 2.12, 5.22, 2.22, 3.39]

Please go through the list and note protein stability index for each sequence.
1. SFMDGYKQKNAYIGTQGPLENTYR [PTPN9]
2. SVAFAVAWFLPMPQKSLFFHHIPS [SLC19A2]

Output:
2.92
3.31

====

assay: protein stability index of a GFP-peptide fusion (GPS, HEK-293T) (PSI 1-6); higher = more stable; settings: treatment: MLN4924 1 uM, 8 h; c terminus: a fixed tail appended
measured parameter: protein stability index

The cases that follow already have their protein stability index on record.
In [3]: df
Out[3]:
                       query_sequence       measured_parameter  result
0  ALQTLLTLIVVDASGLGLEITTQF [SLC19A2]  protein stability index    3.31
1      VPLWGQLLLFLVFVIVLFFIYHFM [EMD]  protein stability index    2.17
2    CDLFDREIVVTISWAKSIPGFSSL [ESRRA]  protein stability index    2.97
3    RQLYAVNRRLRALEEQGATWRHRE [FATE1]  protein stability index    3.56
4      LRHDEVRTYFHEFGHVMHQICAQV [NLN]  protein stability index    2.22
5     RVFQNRFSTQYRCFSVSMLAGPND [UFD1]  protein stability index     2.3
6    GLLQYGSTVKNEFSLKTFKRKSEV [MATN2]  protein stability index    3.07
7    HAQTFVALCATDVKFISNPPSMVA [CCND1]  protein stability index    2.08
8    KNRYANVIAYDHSRVLLSAIEGIP [PTPRD]  protein stability index    2.26
9  PLVALDTDSDDDFDMSRYSSSGYS [FAM219A]  protein stability index    4.76

Please go through the list and note protein stability index for each sequence.
1. RHDGYATNDGNHPSCQETRDYAPP [RBMY1A1]
2. FCEELESMIQEQFKKGKNPTGLLA [ADD1]
3. VRELRIAFREFDRDRDGRITVAEL [CABP4]

Output:
[4.93, 3.81, 2.98]

====

test: protein stability index of a GFP-peptide fusion (GPS, HEK-293T) (PSI 1-6); higher = more stable; conditions: treatment: DMSO; c terminus: a fixed tail appended
Decision: protein stability index >= 4 yields 1, all other cases yield 0.

>>> print(df.to_string())
                       query_sequence  qualitative_label
0    LAVGTDLYGQRNSAPEQELLVQDA [GFOD1]                  1
1  VWFGGREHVLMFAKLALYPCASLL [TMEM175]                  0
2    DLESQVESLREELICLKKNHEEEV [KRT34]                  1

Input: Hello, I need to know if GRQPCGRFLRAYREGALRAALQRS [TRADD] has measured protein stability index not below 4. Thanks!
Output: 0

Input: Hello, I need to know if AEPSRFSSSDSDFDDEEPRKFYVH [FCHO1] has measured protein stability index not below 4. Thanks!
Output: 1

Input: Hello, I need to know if RTRRLGNMKNGANDVKHHRWFRSV [PRKX] has measured protein stability index not below 4. Thanks!
Output: 0

====

assay: protein stability index of a GFP-peptide fusion (GPS, HEK-293T) (PSI 1-6); higher = more stable; details: treatment: MLN4924 1 uM, 8 h; c terminus: a fixed tail appended
Consider the following sequences; for each one, report its protein stability index.
Numbers only.

                    query_sequence       measured_parameter  result
0  ELPAPAEVAAKNQSLEGDTTKGTS [MLH1]  protein stability index    5.59

Please go through the list and note protein stability index for each sequence.
1. EPFSARVLVLCVFNSILPGVLILF [SOAT1]
2. DGEVPQHAGKKGKLSEHLRYCDSI [BRD3]
3. MLQIVVGVRDSGSPPLHANTSLHV [PCDHGC5]
4. DEHIASEEPAEKEDLLQQMLERRY [CLCN6]
5. TIKLWKITERDKRPEGYNLKDEEG [PPP2R2C]
6. WRFVLQRLVFLAAFVVYLETETLV [TSN]
7. PMVNHAEASRLNIERMKQIYQQLS [CRY1]

Output:
3.06
4.76
2.91
4.98
4.03
3.66
2.77

Please go through the list and note protein stability index for each sequence.
1. DIELDAARGDAVCTACGSVLEDNI [BRF1]
2. LPGNHSTSQEIFRQRFRHLRYQET [ZNF232]
3. VAYRSLGRFEQLGKTAASWCLHVN [FSD1]
4. ESTFKNTEISFILGQEFDEVTADD [FABP4]
5. LSFYNARTKQVLHTFKTRFTQPLL [FSD1]

Output:
[5.01, 3.39, 2.2, 5.03, 2.43]
